# inhibition values compiled below
Protocol Description: TLR3 IRF3 reporter activation blockers – cell-based, poly I:C stimulus, luciferase, 10K MLSCN set, primary screen (AID 602277)
Recorded Conditions: HEK293-TLR3 RL24 IRF3 luciferase reporter, at 10 µM, hits give high values
Output spec: scalar in %, unitless text.

Reference set (2 entries):
Molecule: CCCCn1c(=O)[nH]c(=O)c2c1nc(COc1ccc(C#N)cc1)n2CCC
inhibition, %: 30.2
//
Molecule: Cc1cc(NC(=O)c2cnn3c(C(F)F)cc(C4CC4)nc23)no1
inhibition, %: 19.3

The measured inhibition associated with "CCN(c1cccc(C(F)(F)F)c1)S(=O)(=O)c1ccc2c(c1)CCN2C(=O)C1CC1" reads -25.9

The measured inhibition associated with COC(=O)c1ccc(NC(=O)C2CC(=O)N(c3cc(C)ccc3C)C2)cc1 (stereo not given) reads -26.3

The measured inhibition associated with "COC(=O)c1cc(Br)c(=O)n(-c2ccc(OC)cc2)c1" reads 23.2
